Target: T1, human CD73 expressed on the surface of cells (human, UniProt P21589 27-549)
T1 sequence: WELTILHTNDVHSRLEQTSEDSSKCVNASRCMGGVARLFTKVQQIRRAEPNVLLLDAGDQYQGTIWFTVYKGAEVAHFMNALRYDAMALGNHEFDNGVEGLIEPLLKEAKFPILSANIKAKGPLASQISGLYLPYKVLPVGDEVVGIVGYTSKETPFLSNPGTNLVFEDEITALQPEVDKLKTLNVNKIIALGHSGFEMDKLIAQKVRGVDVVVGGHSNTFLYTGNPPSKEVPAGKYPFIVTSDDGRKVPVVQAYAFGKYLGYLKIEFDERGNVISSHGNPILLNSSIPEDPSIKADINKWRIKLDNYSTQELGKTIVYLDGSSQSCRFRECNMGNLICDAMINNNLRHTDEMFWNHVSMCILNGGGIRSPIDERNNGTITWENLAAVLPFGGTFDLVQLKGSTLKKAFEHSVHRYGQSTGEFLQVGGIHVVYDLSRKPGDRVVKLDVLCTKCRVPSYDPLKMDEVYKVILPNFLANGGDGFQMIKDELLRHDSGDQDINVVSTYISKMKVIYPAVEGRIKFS
Assay: cell-based or functional assay
For each entry below, report its IC50 (nM), cell-based CD73 activity assay (A375 cells) value.
Write the value in nM as a bare number.

Give the value of IC50 (nM), cell-based CD73 activity assay (A375 cells) reported for the following: 39G8-H2L3 (antibody, V domains shown) VH: QVQLVQSGAEVKKPGASVKVSCKASGYTFTSYWMHWVRQAPGQGLEWIGEIDPSGGYTNYAQKFQGRSTLTVDTSISTAYMELSRLRSDDTAVYYCARNYYYGSSGTMDYWGQGTLVTVSS VL: DIVMTQSPDSLAVSLGERATMSCKSSQSLLNSSNQKNYLAWYQQKPGQPPKLLVYFASTRESGVPDRFSGSGSGTDFTLTISSLQAEDVAVYFCQQHYSTPYTFGGGTKVEIK
66.3

Give the value of IC50 (nM), cell-based CD73 activity assay (A375 cells) reported for the following: 60A9-H3L3 (antibody, V domains shown) VH: EVQLVESGGGLVQPGQSLKLSCKASGYAFSSYWMNWVRQAPGKGLEWIGQIYPGDGDTYYNPSVKGRATLSADKSKNTAYLQLNNLRAEDTAVYYCAREAIYYGNYVFTYWGQGTLVTVSS VL: DIQMTQSPSLLSASLGDRVTITCKSSQSLLNSSNQKNYLAWYQQKPGQSPKLLVYFASTRDSGVPDRFSGSGSGTDFTLTISSLEPEDFATYYCQQHYSTPLTFGGGTKLEIK
65.7

Give the value of IC50 (nM), cell-based CD73 activity assay (A375 cells) reported for the following: 60A9-H4L4 (antibody, V domains shown) VH: EVQLVESGGGLVQPGQSLKLSCKASGYAFSSYWMNWVRQAPGKGLEWIGQIYPGDGDTYYSGSVKGRATLSADKSKNTAYLQLNNLRAEDTAVYYCAREAIYYGNYVFTYWGQGTLVTVSS VL: DIVMTQSPSLLSASLGDRVTISCKSSQSLLNSSNQKNYLAWYQQKPGQSPKLLVYFASTRDSGVPDRFSGSGSGTDFTLTISSLEPEDFATYFCQQHYSTPLTFGAGTKLEIK
135

Give the value of IC50 (nM), cell-based CD73 activity assay (A375 cells) reported for the following: 60A9-H3L4 (antibody, V domains shown) VH: EVQLVESGGGLVQPGQSLKLSCKASGYAFSSYWMNWVRQAPGKGLEWIGQIYPGDGDTYYNPSVKGRATLSADKSKNTAYLQLNNLRAEDTAVYYCAREAIYYGNYVFTYWGQGTLVTVSS VL: DIVMTQSPSLLSASLGDRVTISCKSSQSLLNSSNQKNYLAWYQQKPGQSPKLLVYFASTRDSGVPDRFSGSGSGTDFTLTISSLEPEDFATYFCQQHYSTPLTFGAGTKLEIK
134

Source: patent US20200399389A1
